test system: HIV-1NL4-3 IRES-eGFP-nef+; test: eGFP-encoding HIV-1 infection of TZM-bl cells; format: cell-based; conditions: 9, 10, 13 1.5 μM, 20, 21, 22 4 μM, seliciclib 10 µM, triptolide 5 nM, DTG 2 nM, EFV 2 nM, 2 days
RESULT TYPE: inhibition of viral-expressed eGFP signal

{"columns": ["COMPOUND", "REPORTED RESULT"],
 "data": [
  ["Cc1[nH]c2ccc(-c3nnc(S(=O)(=O)CC(=O)N4CCCC4)o3)cc2c1C", "did not"],
  ["Cc1[nH]c2ccc(-c3nnc(S(=O)(=O)C(C)C(=O)N4CCCC4)o3)cc2c1C (stereo not shown)", "did not"],
  ["C[C@@H]1CCO[C@H]2Cn3cc(C(=O)NCc4ccc(F)cc4F)c(=O)c(O)c3C(=O)N12 [DTG, dolutegravir, reference compound]", "remarkably inhibited"],
  ["O=C1Nc2ccc(Cl)cc2[C@@](C#CC2CC2)(C(F)(F)F)O1 [EFV, efavirenz, reference compound]", "remarkably inhibited"]
]}

====

test system: general cellular transcription/translation (R-Luc); assay: Dual-reporter assay, R-Luc in bl-DTR cells; type: cell-based; conditions: doxycycline, 24 h
Please respond with reported Relative R-Luc activity at IC50 of F-Luc for every item in the list.

Prompt line: Would you mind telling me what Relative R-Luc activity at IC50 of F-Luc value was observed for Cc1[nH]c2ccc(-c3nnc(SC(C)C(=O)N4CCCC4)o3)cc2c1C (centres unmarked) [Compound 14] ?
Response line: >100

Prompt line: What value of Relative R-Luc activity at IC50 of F-Luc has been reported for the following compound? Cc1[nH]c2ccc(-c3nnc(SC(C)C(=O)N4CCCCC4)n3CCc3ccccc3)cc2c1C (centres unmarked) [Compound 30]
Response line: 100

Prompt line: Can you share its Relative R-Luc activity at IC50 of F-Luc? I mean this compound: Cc1[nH]c2ccc(-c3nnc(SCCN4CCCCC4)o3)cc2c1C [Compound 24]
Response line: >100

Prompt line: Returns the measured Relative R-Luc activity at IC50 of F-Luc for the input compound. Input: Cc1[nH]c2ccc(-c3nnc(SCC(=O)N4CCCCC4)o3)cc2c1C [Compound 9]
Response line: >100

Prompt line: Field request: Relative R-Luc activity at IC50 of F-Luc | item: Cc1[nH]c2ccc(-c3nnc(SCC(=O)N4CCCCC4)n3C)cc2c1C [Compound 28]
Response line: 90

====

System: HIV-1NL4-3
Test: HIV-1 replication in A3.01 cells (p24 […])
Format: cell-based
Method: The p24 level from the cell supernatant was subsequently determined using a p24 […] kit (PerkinElmer). In parallel, the cell viability was determined without viral infection because of the viral cytopathic effect. […] In parallel, cell viability was determined. The data (A and B) are presented as the mean ± SD (n = 3). […] The levels of p24 and cell viability were subsequently determined. […] The level of p24 was subsequently determined. […] The GFP-positive cell population was analyzed using flow cytometry. […]
RESULT TYPE: SI (CC50/EC50)
Write the value as a bare number.

Prompt line: // lookup SI (CC50/EC50) for Cc1[nH]c2ccc(-c3nnc(SCC(=O)N4CCCC4)o3)cc2c1C [Compound 13]
Response line: 93.29

Prompt line: Form field: reported SI (CC50/EC50) of Cc1[nH]c2ccc(-c3nnc(SCC(=O)N4CCCCC4)o3)cc2c1C [Compound 9]
Response line: 224.40

Prompt line: # SI (CC50/EC50) lookup, item CC(C)[C@]12O[C@H]1[C@@H]1O[C@]13[C@]1(O[C@H]1C[C@H]1C4=C(CC[C@@]13C)C(=O)OC4)[C@@H]2O [triptolide, reference compound]
Response line: 54.05

====

test system: INSTI-resistant HIV-1 strain 11847; test: microbe, parasite or virus in culture; format: cell-based; details: Human immunodeficiency virus 1, TZM-bl
RESULT TYPE: pEC50
Interpret pEC50 as the negative base-10 log of the concentration measured in mol/L.

Prompt line: Give its pEC50 value. Item: Cc1[nH]c2ccc(-c3nnc(SCC(=O)N4CCCC4)o3)cc2c1C
Response line: 6.85

Prompt line: Given the entry Cc1[nH]c2ccc(-c3nnc(SCC(=O)N4CCCCC4)o3)cc2c1C , report its measured pEC50.
Response line: 7.15

Prompt line: Need pEC50, item Cc1nnc(C(=O)NC(C)(C)c2nc(C(=O)NCc3ccc(F)cc3)c(O)c(=O)n2C)o1 [RAL, raltegravir, reference compound]
Response line: 5.30

Prompt line: Bench note: what pEC50 did C[C@@H]1CCO[C@H]2Cn3cc(C(=O)NCc4ccc(F)cc4F)c(=O)c(O)c3C(=O)N12 [DTG, dolutegravir, reference compound] show?
Response line: 8.00

====

Tested on: general cellular transcription/translation (R-Luc)
Test: Dual-reporter assay, R-Luc in bl-DTR cells
Format: cell-based
Settings: doxycycline, 24 h
Protocol: Fig 1 (A) (Top panel) Schematic representation of the primary compound screening using a dual-reporter system. […] (B). […] (Top graphs) bl-DTR cells (1 × 10^4) were treated with twofold serial dilutions of each compound before doxycycline (Dox) addition (final concentration, 50 ng/mL). After 24 h of treatment, the activities of firefly luciferase (F-Luc, red line) and Renilla luciferase (R-Luc, blue line) were determined using the Dual-Glo Luciferase assay system. […]
RESULT TYPE: Relative R-Luc activity at IC50 of F-Luc

Prompt line: Could you share which Relative R-Luc activity at IC50 of F-Luc value was measured for Cc1[nH]c2ccc(-c3nnc(SCC(=O)N4CCCC(C)C4)o3)cc2c1C (stereo not shown) [Compound 10] ?
Response line: >100

Prompt line: Field request: Relative R-Luc activity at IC50 of F-Luc | item: Cc1[nH]c2ccc(-c3nnc(SCC(=O)N4CCCC4)o3)cc2c1C [Compound 13]
Response line: >100

Prompt line: What does the record list as Relative R-Luc activity at IC50 of F-Luc for CC(C)[C@]12O[C@H]1[C@@H]1O[C@]13[C@]1(O[C@H]1C[C@H]1C4=C(CC[C@@]13C)C(=O)OC4)[C@@H]2O [triptolide, reference compound] ?
Response line: >100

Prompt line: Which Relative R-Luc activity at IC50 of F-Luc value belongs to Cc1[nH]c2ccc(-c3nnc(SCCC(=O)O)o3)cc2c1C [Compound B] ?
Response line: >100

Prompt line: For the compound shown here, Cc1[nH]c2ccc(-c3nnc(SC(C)C(=O)N4CCCCC4)o3)cc2c1C (stereo not shown) [Compound 11] , give the reported Relative R-Luc activity at IC50 of F-Luc.
Response line: 100

Prompt line: Field request: Relative R-Luc activity at IC50 of F-Luc | item: Cc1[nH]c2ccc(-c3nnc(SCC(=O)N4CCCC4)n3CCc3ccccc3)cc2c1C [Compound 31]
Response line: >100

Prompt line: Relative R-Luc activity at IC50 of F-Luc for Cc1[nH]c2ccc(-c3nnc(SC(C)C(=O)N4CCCC4)n3CCc3ccccc3)cc2c1C (stereo not shown) [Compound 32] ?
Response line: 90

====

assay: Cell viability of A3.01 cells; type: cell-based; conditions: human; A3.01 cells, absence of HIV-1 infection; mean ± SD; read-out: CC50
Record form. Attribute: CC50 at 3 days. Fill in for each entry.

Prompt line: CC50 at 3 days lookup needed for CC[C@H](CO)Nc1nc(NCc2ccccc2)c2ncn(C(C)C)c2n1 [seliciclib, reference compound] , thanks.
Response line: 27 µM

Prompt line: For the molecule shown here, O=C1Nc2ccc(Cl)cc2[C@@](C#CC2CC2)(C(F)(F)F)O1 [EFV, efavirenz, reference compound] , give the reported CC50 at 3 days.
Response line: 22.7 µM

Prompt line: Look up CC50 at 3 days: CC(C)[C@]12O[C@H]1[C@@H]1O[C@]13[C@]1(O[C@H]1C[C@H]1C4=C(CC[C@@]13C)C(=O)OC4)[C@@H]2O [triptolide, reference compound]
Response line: 0.22 µM

====

system: HIV-1NL4-3; experiment: HIV-1 infectivity in TZM-bl cells (F-Luc); type: cell-based; details: Human immunodeficiency virus 1, TZM-bl, 48 h, TZM-bl cells infected with HIV-1NL4-3 at MOI 1, 48 h, F-Luc; mean ± SD
RESULT TYPE: EC50

Prompt line: Which measured EC50 value corresponds to Cc1[nH]c2ccc(-c3nnc(SCC(=O)N4CCCC4)o3)cc2c1C ?
Response line: 180 nM

Prompt line: Looking for the measured EC50 of O=C(O)CCSc1nnc(-c2cccc3ccccc23)o1 , can you help?
Response line: 4190 nM

====

tested on: HIV-1NL4-3; experiment: HIV-1 infectivity in TZM-bl cells (F-Luc); type: cell-based; settings: TZM-bl cells
RESULT TYPE: SI (CC50/EC50)
Give your answer as a number; write no unit.

Prompt line: Name the recorded SI (CC50/EC50) for Cc1[nH]c2ccc(-c3nnc(SCC(=O)N4CCCC4)o3)cc2c1C [Compound 13] .
Response line: 196.33

Prompt line: I'd like to know its SI (CC50/EC50). The molecule in question is Cc1[nH]c2ccc(-c3nnc(SC(C)C(=O)N4CCCCC4)n3CCc3ccccc3)cc2c1C (centres unmarked) [Compound 30]
Response line: 11.26

Prompt line: # lookup: SI (CC50/EC50) of Cc1[nH]c2ccc(-c3nnc(SC(C)C(=O)N4CCCCC4)o3)cc2c1C (centres unmarked) [Compound 11]
Response line: 67.85

Prompt line: # query: SI (CC50/EC50) of entry Cc1[nH]c2ccc(-c3nnc(SCC(=O)N4CCCC4)n3CCc3ccccc3)cc2c1C [Compound 31]
Response line: 9.39

Prompt line: Query: SI (CC50/EC50); subject: Cc1[nH]c2ccc(-c3nnc(SC(C)C(=O)N4CCCC4)o3)cc2c1C (centres unmarked) [Compound 14]
Response line: 17.44

Prompt line: Recorded SI (CC50/EC50) for Cc1[nH]c2ccc(-c3nnc(SCC(=O)N4CCCCC4)n3C)cc2c1C [Compound 28] , please?
Response line: 1.74

Prompt line: # SI (CC50/EC50) lookup, item Cc1[nH]c2ccc(-c3nnc(SCC(=O)N4CCCCC4)o3)cc2c1C [Compound 9]
Response line: 371.76

Prompt line: Find the recorded SI (CC50/EC50) belonging to Cc1[nH]c2ccc(-c3nnc(SCCC(=O)O)o3)cc2c1C [Compound B] and report it.
Response line: 16.97

Prompt line: Tell me the measured SI (CC50/EC50) of Cc1[nH]c2ccc(-c3nnc(SCCN4CCCCC4)o3)cc2c1C [Compound 24] , please.
Response line: 13.34

Prompt line: Report SI (CC50/EC50) for CC(C)[C@]12O[C@H]1[C@@H]1O[C@]13[C@]1(O[C@H]1C[C@H]1C4=C(CC[C@@]13C)C(=O)OC4)[C@@H]2O [triptolide, reference compound] please.
Response line: 52.63

Prompt line: Reported SI (CC50/EC50) for Cc1[nH]c2ccc(-c3nnc(SCC(=O)N4CCCC(C)C4)o3)cc2c1C (centres unmarked) [Compound 10] : what is it?
Response line: 147.27
